- method: Biliary excretion in rat
- Format: ADME
- testConditions: bile, read-out: Drug excretion
propertyName: dose excreted

1) CC[C@@]1(O)C(=O)OCc2c1cc1n(c2=O)Cc2cc3c(CN(C)C)c(O)ccc3nc2-1 = 13.2%

---

- method: Biliary excretion in Eisai hyperbilirubinemic mutant rat at 20 mg/kg, iv administered as single dose by HPLC analysis
- Type: ADME, organism-based
- Parameters: dose 20 mg/kg, route intravenous
- testConditions: bile, read-out: Drug excretion
propertyName: dose excreted (%)

1. Cc1cc(O)c(C(=O)N[C@@H](C(=O)N[C@@H]2C(=O)N3C(C(=O)O)=C(CSc4nnnn4C)CS[C@H]23)c2ccc(O)cc2)cn1 [CEFPIRAMIDE] = 57.8

---

- method: In vivo apparent biliary clearance in iv dosed Sprague-Dawley rat by LC-MS/MS analysis
- Assay type: ADME, organism-based, Bile
This listing pairs molecules with measured CL(app).
propertyName: CL(app) (L/h/kg)

1. CC[C@H](C)C(=O)O[C@H]1C[C@H](O)C=C2C=C[C@H](C)[C@H](CC[C@@H](O)C[C@@H](O)CC(=O)O)[C@H]21 [PRAVASTATIN] = 1.644
2. CC(C)c1nc(N(C)S(C)(=O)=O)nc(-c2ccc(F)cc2)c1/C=C/[C@@H](O)C[C@@H](O)CC(=O)O [ROSUVASTATIN] = 1.45
3. CO[C@@]1(NC(=O)CSCC#N)C(=O)N2C(C(=O)O)=C(CSc3nnnn3C)CS[C@@H]21 [CEFMETAZOLE] = 0.373
4. CCCCC(=O)N(Cc1ccc(-c2ccccc2-c2nnn[nH]2)cc1)[C@H](C(=O)O)C(C)C = 0.21
5. Cc1cc(O)c(C(=O)N[C@@H](C(=O)N[C@@H]2C(=O)N3C(C(=O)O)=C(CSc4nnnn4C)CS[C@H]23)c2ccc(O)cc2)cn1 [CEFPIRAMIDE] = 0.283
6. CCCc1nc(C(C)(C)O)c(C(=O)O)n1Cc1ccc(-c2ccccc2-c2nnn[nH]2)cc1 [OLMESARTAN] = 0.168
7. CC[C@@]1(O)C(=O)OCc2c1cc1n(c2=O)Cc2cc3c(CN(C)C)c(O)ccc3nc2-1 [TOPOTECAN] = 0.318

---

- method: Total clearance in rat
- Assay type: ADME, organism-based
- testConditions: in vivo
propertyName: clearance (L/h/kg)

1) CC[C@@]1(O)C(=O)OCc2c1cc1n(c2=O)Cc2cc3c(CN(C)C)c(O)ccc3nc2-1 [TOPOTECAN] = 2.41

---

- method: Unbound fraction in Sprague-Dawley rat plasma at 100 uM by equilibrium dialysis method
Labelling field: enter class 1 if recorded fraction unbound at 100 µM is less than 0.04. Enter class 0 if it equals or exceeds that cut-off.

1. Cc1cc(O)c(C(=O)N[C@@H](C(=O)N[C@@H]2C(=O)N3C(C(=O)O)=C(CSc4nnnn4C)CS[C@H]23)c2ccc(O)cc2)cn1 [CEFPIRAMIDE] = class 0
2. CC[C@H](C)C(=O)O[C@H]1C[C@H](O)C=C2C=C[C@H](C)[C@H](CC[C@@H](O)C[C@@H](O)CC(=O)O)[C@H]21 [PRAVASTATIN] = class 0
3. CC[C@@]1(O)C(=O)OCc2c1cc1n(c2=O)Cc2cc3c(CN(C)C)c(O)ccc3nc2-1 [TOPOTECAN] = class 0
4. CO[C@@]1(NC(=O)CSCC#N)C(=O)N2C(C(=O)O)=C(CSc3nnnn3C)CS[C@@H]21 [CEFMETAZOLE] = class 0
5. CCCCC(=O)N(Cc1ccc(-c2ccccc2-c2nnn[nH]2)cc1)[C@H](C(=O)O)C(C)C = class 1
6. CCCc1nc(C(C)(C)O)c(C(=O)O)n1Cc1ccc(-c2ccccc2-c2nnn[nH]2)cc1 [OLMESARTAN] = class 1
7. CC(C)c1nc(N(C)S(C)(=O)=O)nc(-c2ccc(F)cc2)c1/C=C/[C@@H](O)C[C@@H](O)CC(=O)O [ROSUVASTATIN] = class 1

---

- method: In vivo intrinsic biliary clearance in iv dosed Sprague-Dawley rat by LC-MS/MS analysis
- Assay type: ADME, organism-based, Bile
propertyName: CL

1. CO[C@@]1(NC(=O)CSCC#N)C(=O)N2C(C(=O)O)=C(CSc3nnnn3C)CS[C@@H]21 = 3.57 mL/min/kg
2. CC[C@H](C)C(=O)O[C@H]1C[C@H](O)C=C2C=C[C@H](C)[C@H](CC[C@@H](O)C[C@@H](O)CC(=O)O)[C@H]21 = 6.723 mL/min/kg
3. CC(C)c1nc(N(C)S(C)(=O)=O)nc(-c2ccc(F)cc2)c1/C=C/[C@@H](O)C[C@@H](O)CC(=O)O = 2.505 mL/min/kg
4. CC[C@@]1(O)C(=O)OCc2c1cc1n(c2=O)Cc2cc3c(CN(C)C)c(O)ccc3nc2-1 = 0.458 mL/min/kg
5. CCCc1nc(C(C)(C)O)c(C(=O)O)n1Cc1ccc(-c2ccccc2-c2nnn[nH]2)cc1 = 1.11 mL/min/kg
6. CCCCC(=O)N(Cc1ccc(-c2ccccc2-c2nnn[nH]2)cc1)[C@H](C(=O)O)C(C)C = 1.18 mL/min/kg
7. Cc1cc(O)c(C(=O)N[C@@H](C(=O)N[C@@H]2C(=O)N3C(C(=O)O)=C(CSc4nnnn4C)CS[C@H]23)c2ccc(O)cc2)cn1 [CEFPIRAMIDE] = 3.357 mL/min/kg

---

- method: Drug uptake in iv dosed Sprague-Dawley rat liver after 5 hrs by LC-MS/MS analysis
- Assay type: ADME, organism-based
- testConditions: read-out: Drug uptake
The following molecules are shown together with reported concentration at 5 h values.
propertyName: concentration at 5 h

1. CCCc1nc(C(C)(C)O)c(C(=O)O)n1Cc1ccc(-c2ccccc2-c2nnn[nH]2)cc1 = 19.1 µM
2. CC(C)c1nc(N(C)S(C)(=O)=O)nc(-c2ccc(F)cc2)c1/C=C/[C@@H](O)C[C@@H](O)CC(=O)O = 7.1 µM
3. CO[C@@]1(NC(=O)CSCC#N)C(=O)N2C(C(=O)O)=C(CSc3nnnn3C)CS[C@@H]21 = 5.1 µM
4. CC[C@@]1(O)C(=O)OCc2c1cc1n(c2=O)Cc2cc3c(CN(C)C)c(O)ccc3nc2-1 = 6.9 µM
5. Cc1cc(O)c(C(=O)N[C@@H](C(=O)N[C@@H]2C(=O)N3C(C(=O)O)=C(CSc4nnnn4C)CS[C@H]23)c2ccc(O)cc2)cn1 [CEFPIRAMIDE] = 2.6 µM
6. CCN1CCN(C(=O)N[C@@H](C(=O)N[C@@H]2C(=O)N3C(C(=O)O)=C(CSc4nnnn4C)CS[C@H]23)c2ccc(O)cc2)C(=O)C1=O = 2.5 µM
7. CCCCC(=O)N(Cc1ccc(-c2ccccc2-c2nnn[nH]2)cc1)[C@H](C(=O)O)C(C)C = 17.4 µM
8. CC[C@H](C)C(=O)O[C@H]1C[C@H](O)C=C2C=C[C@H](C)[C@H](CC[C@@H](O)C[C@@H](O)CC(=O)O)[C@H]21 = 1.9 µM

---

- Tested on: Hepatocyte
- method: Drug uptake in sandwich cultured Sprague-Dawley rat hepatocytes by LC-MS/MS analysis
- Format: ADME, cell-based
propertyName: log10 Drug uptake (log10 of the value in µmol/L)

1. CCN1CCN(C(=O)N[C@@H](C(=O)N[C@@H]2C(=O)N3C(C(=O)O)=C(CSc4nnnn4C)CS[C@H]23)c2ccc(O)cc2)C(=O)C1=O = 0.41
2. CO[C@@]1(NC(=O)CSCC#N)C(=O)N2C(C(=O)O)=C(CSc3nnnn3C)CS[C@@H]21 = 1.06
3. CC(C)c1nc(N(C)S(C)(=O)=O)nc(-c2ccc(F)cc2)c1/C=C/[C@@H](O)C[C@@H](O)CC(=O)O = 1.07
4. CCCCC(=O)N(Cc1ccc(-c2ccccc2-c2nnn[nH]2)cc1)[C@H](C(=O)O)C(C)C = 1.24
5. CCCc1nc(C(C)(C)O)c(C(=O)O)n1Cc1ccc(-c2ccccc2-c2nnn[nH]2)cc1 = 1.41
6. CC[C@H](C)C(=O)O[C@H]1C[C@H](O)C=C2C=C[C@H](C)[C@H](CC[C@@H](O)C[C@@H](O)CC(=O)O)[C@H]21 = 0.28
7. CC[C@@]1(O)C(=O)OCc2c1cc1n(c2=O)Cc2cc3c(CN(C)C)c(O)ccc3nc2-1 = 0.52
8. Cc1cc(O)c(C(=O)N[C@@H](C(=O)N[C@@H]2C(=O)N3C(C(=O)O)=C(CSc4nnnn4C)CS[C@H]23)c2ccc(O)cc2)cn1 [CEFPIRAMIDE] = 0.00

---

- method: Total clearance in Eisai hyperbilirubinemic mutant rat at 20 mg/kg, iv administered as single dose by HPLC analysis
- Type: ADME, organism-based
- Design: dose 20 mg/kg, route intravenous
- testConditions: in vivo
propertyName: clearance

1. Cc1cc(O)c(C(=O)N[C@@H](C(=O)N[C@@H]2C(=O)N3C(C(=O)O)=C(CSc4nnnn4C)CS[C@H]23)c2ccc(O)cc2)cn1 [CEFPIRAMIDE] = 0.489 L/h/kg

Reference source: ChEMBL document CHEMBL3525999
